For each record, write down the corresponding inhibition at 1 ppm.
system: Gaeumannomyces graminis var. tritici (Ggt); assay: In vitro Assay: mycelial growth of Ggt on minimal media agar plates containing test compound; type: cell-based; conditions: Gaeumannomyces graminis; 1 ppm in minimal media agar; dark, 19-20° C., 4 to 5 days; diameter of mycelial growth; read-out: In vitro (ppm) 1, Percent Inhibition
One number for each entry, in %.

Consider the worked cases shown below.
CCNC(=O)c1c(Cl)cccc1-c1cccc2ccccc12	60
C[Si](C)(C)c1cccc(Cl)c1C(=O)N1CCOCC1	15
CCN(SC)C(=O)c1c(Cl)cccc1[Si](C)(C)C	100
C[Si](C)(C)c1cccc(Cl)c1C(=O)N1CCCCC1	3
CCNC(=O)c1cc(NC(=O)c2ccccc2)ccc1[Si](C)(C)C	22
C[Si](C)(C)c1cccc(Cl)c1C(=O)NCc1ccc([N+](=O)[O-])cc1	61
CCN(CC)C(=S)c1c(C)ccc(F)c1[Si](C)(C)C	19
CC(NC(=O)c1c(Cl)cccc1[Si](C)(C)C)c1ccccc1 (stereo not shown)	17
CCN(CC)C(=O)c1c(CF)cccc1[Si](C)(C)C	81

Qu. Any idea what inhibition at 1 ppm was measured for CCC(C)SC(=O)c1c(Cl)cccc1[Si](C)(C)C (stereo not shown) ?
Ans. 4

---

For each record, write down the corresponding inhibition at 0.1 ppm.
tested on: Gaeumannomyces graminis var. tritici (Ggt); assay: In vitro Assay: mycelial growth of Ggt on minimal media agar plates containing test compound; type: cell-based; conditions: Gaeumannomyces graminis; 0.1 ppm in minimal media agar; dark, 19-20° C., 4 to 5 days; diameter of mycelial growth; read-out: In vitro (ppm) 0.1, Percent Inhibition
One number for each entry, in %.

Consider the worked cases shown below.
CCN(CC)C(=O)c1ccc(C)c(F)c1[Si](C)(C)C	10
CCN(CC)C(=O)c1c(Cl)cccc1C[Si](C)(C)C	4
C[Si](C)(C)c1cccc(Cl)c1C(=O)NCc1ccc([N+](=O)[O-])cc1	17

For every record below, what is its inhibition at 0.1 ppm?
1. CCC(C)NC(=O)c1c(Cl)cccc1[Si](C)(C)C (stereo not drawn)
2. C[Si](C)(C)c1cccc(Cl)c1C(=O)NCCO

Ans.
60
15

For every record below, what is its inhibition at 0.1 ppm?
1. CCCNC(=O)c1c(Cl)cccc1[Si](C)(C)C
2. C[Si](C)(C)c1cccc(Cl)c1C(=O)NCc1ccc(C(F)(F)F)cc1

Ans.
1. 95
2. 28

---

tested on: Gaeumannomyces graminis var. tritici (Ggt); assay: In vitro Assay: mycelial growth of Ggt on minimal media agar plates containing test compound; type: cell-based; settings: Gaeumannomyces graminis; 1 ppm in minimal media agar; dark, 19-20° C., 4 to 5 days; diameter of mycelial growth; read-out: In vitro (ppm) 1, Percent Inhibition
readout: inhibition at 1 ppm (%)
Give bare numbers, in %.

Consider the worked cases shown below.
CCNC(=O)c1c(Br)ccc(OC)c1[Si](C)(C)C	68
CCN(CC)C(=O)c1c(C(F)F)cccc1[Si](C)(C)C	70

Would you kindly look at the next entry?
Qu. Lab request: please report inhibition at 1 ppm under test system Gaeumannomyces graminis var. tritici (Ggt) for C[Si](C)(C)c1cccc(Cl)c1C(=O)NCCCCl
Ans. 60

---

system: Gaeumannomyces graminis var. tritici (Ggt); test: In vitro Assay: mycelial growth of Ggt on minimal media agar plates containing test compound; format: cell-based; details: Gaeumannomyces graminis; 0.1 ppm in minimal media agar; dark, 19-20° C., 4 to 5 days; diameter of mycelial growth; read-out: In vitro (ppm) 0.1, Percent Inhibition
Kind request: treat 20% as inclusive, so inhibition at 0.1 ppm at 20% or higher is 1, anything lower is 0.

Before answering, review these 3 worked examples.
CN1CCN(C(=O)c2c(Cl)cccc2[Si](C)(C)C)CC1	0
CCNC(=O)c1c(Cl)cccc1-c1ccccc1C	0
CCNC(=O)c1c(C)cccc1C(C)(C)C	0

Qu. Decide: is the reported value of inhibition at 0.1 ppm for C#CCNC(=O)c1c(Cl)cccc1[Si](C)(C)C equal to or greater than 20%?
Ans. 1

Qu. Decide: is the reported value of inhibition at 0.1 ppm for CCN(C(=O)OC(C)(C)C)C(=O)c1c(Cl)cccc1[Si](C)(C)C equal to or greater than 20%?
Ans. 0

Qu. Decide: is the reported value of inhibition at 0.1 ppm for CCNC(=O)c1c(F)cccc1S(=O)(=O)C(C)(C)C equal to or greater than 20%?
Ans. 1

Qu. Decide: is the reported value of inhibition at 0.1 ppm for C[Si](C)(C)c1cc(Cl)sc1C(=O)NCCOS(C)(=O)=O equal to or greater than 20%?
Ans. 0

Qu. Decide: is the reported value of inhibition at 0.1 ppm for CCNC(=O)c1c([Si](C)(C)C)csc1Cl equal to or greater than 20%?
Ans. 0

Qu. Decide: is the reported value of inhibition at 0.1 ppm for CCNC(=O)c1nc(Cl)sc1[Si](C)(C)C equal to or greater than 20%?
Ans. 0

---

tested on: Gaeumannomyces graminis var. tritici (Ggt); assay: In vitro Assay: mycelial growth of Ggt on minimal media agar plates containing test compound; type: cell-based; settings: Gaeumannomyces graminis; 1 ppm in minimal media agar; dark, 19-20° C., 4 to 5 days; diameter of mycelial growth; read-out: In vitro (ppm) 1, Percent Inhibition
readout: inhibition at 1 ppm (%)
Numbers only, in %.

Consider the worked cases shown below.
CCNC(=O)c1c(Cl)cccc1N(C)C(C)(C)C [Example 190]	76
CCN(CC)C(=O)c1c(C)cccc1[Si](C)(C)C [Example 3]	58
CCN(CC)C(=O)c1ccc(C)cc1[Si](C)(C)C [Example 58]	6
CN1CCN(C(=O)c2c(Cl)cccc2[Si](C)(C)C)CC1 [Example 133]	3
Cc1ccccc1NC(=O)c1ccccc1[Si](C)(C)C [Example 121]	8
CCNC(=O)c1c(Cl)cccc1NC(C)(C)C [Example 192]	95
CCNC(=O)c1c([Si](C)(C)C)ccc(SC)c1Cl [Example 231]	76
CCCCCCCC[Si](C)(C)c1cccc(Cl)c1C(=O)NCC [Example 182]	58
CCCCCCCCNC(=O)c1c(Cl)cccc1[Si](C)(C)C [Example 17]	64
CCCCCCC(C)N(CC)C(=O)c1c(Cl)cccc1[Si](C)(C)C (centres unmarked) [Example 96]	15

For every record below, what is its inhibition at 1 ppm?
1. CCNC(=O)c1occc1[Si](C)(C)C [Example 252]
2. CCN(CC)C(=O)c1c(C(F)(F)F)cccc1[Si](C)(C)C [Example 61]
3. CCN(C(=O)c1ccccc1[Si](C)(C)C)C(OC)C(C)(C)C (centres unmarked) [Example 187]
4. CCNC(=O)c1c(Cl)ccc([N+](=O)[O-])c1[Si](C)(C)C [Example 215]
5. COc1ccc(CNC(=O)c2c(Cl)cccc2[Si](C)(C)C)cc1 [Example 136]
6. CCNC(=O)c1ccsc1[Si](C)(C)C [Example 70]
7. CCNC(=O)c1c([Si](C)(C)C)sc2c1CCCC2 [Example 270]

Ans.
1: 28; 2: 29; 3: 27; 4: 96; 5: 26; 6: 15; 7: 100

---

Test system: Gaeumannomyces graminis var. tritici (Ggt)
Experiment: In vitro Assay: mycelial growth of Ggt on minimal media agar plates containing test compound
Assay type: cell-based
Conditions: Gaeumannomyces graminis; 0.1 ppm in minimal media agar; dark, 19-20° C., 4 to 5 days; diameter of mycelial growth; read-out: In vitro (ppm) 0.1, Percent Inhibition
Experimental: The test compounds (0.25 mL of an appropriate stock solution in acetone) are incorporated into 25 mL minimal media agar [(prepared by autoclaving a solution of 17.5 g Czapek Dox broth (Difco), 7.5 g purified agar or Bacto-agar (Difco), and 500 mL distilled/deionized water, and then adding 50 μL of 1 mg/mL thiamine hydrochloride and 50 μL of 1 mg/mL biotin in 5% ethanol] and plates are prepared. […]
For each record, write down the corresponding inhibition at 0.1 ppm.
One number for each entry, in %.

CCNC(=O)c1c([Si](C)(C)C)ccc(Cl)c1F [Example 218]	18
CCNC(=O)c1sc(I)cc1[Si](C)(C)C [Example 257]	3

For every record below, what is its inhibition at 0.1 ppm?
1. CCN(COC)C(=O)c1c(Cl)cccc1[Si](C)(C)C [Example 46]
2. CCNC(=O)c1c(F)cccc1-c1ccccc1C [Example 94]
3. CCNC(=O)c1sc(Cl)cc1[Si](C)(C)C [Example 254]
4. CCNC(=O)c1c(I)cccc1[Si](C)(C)C [Example 207]
5. CCNC(=O)c1c(Cl)cccc1[Si](C)(C)C(C)C [Example 180]
6. C[Si](C)(C)c1cccc(Cl)c1C(=O)Nc1ccccc1C1CCCC1 [Example 158]
7. C[Si](C)(C)c1cccc(Cl)c1C(=O)Nc1ccccc1 [Example 16]

Ans.
[15, 9, 97, 31, 85, 2, 11]
